Origin of measurements: patent US20200231562A1

- Tested on: S. aureus N315 mutant Mt50DscA.2
- test.name: Susceptibility (MIC) of Disciformycin A-resistant mutant
- Type: cell-based
- assay.setup: Staphylococcus aureus

compound	MIC
C/C=C(/C)[C@H]1C/C=C(\C)[C@@H](O[C@H]2O[C@H](CO)[C@@H](O)[C@@H]2O)[C@H](OC(=O)CC(C)C)C(=O)C[C@@H](O)[C@H](C)C(=O)O1	> 64 µg/mL
CO[C@H]1/C=C/O[C@@]2(C)Oc3c(C)c(O)c4c(O)c(c(/C=N/N5CCN(C)CC5)c(O)c4c3C2=O)NC(=O)/C(C)=C\C=C\[C@H](C)[C@H](O)[C@@H](C)[C@@H](O)[C@@H](C)[C@H](OC(C)=O)[C@@H]1C [rifampicin, reference compound]	0.005 µg/mL
C/C=C(/C)[C@H]1C/C=C(\C)[C@@H](O[C@H]2O[C@H](CO)[C@@H](O)[C@@H]2O)[C@H](OC(=O)CC(C)C)C(=O)C/C=C(/C)C(=O)O1	> 64 µg/mL
C/C=C(/C)[C@H]1C/C=C(\C)[C@@H](O[C@H]2O[C@H](CO)[C@@H](O)[C@@H]2O)[C@H](OC(=O)CC(C)C)C(=O)/C=C/[C@H](C)C(=O)O1	> 64 µg/mL
C/C=C(/C)[C@H]1C/C=C(\C)[C@@H](O[C@H]2O[C@H](CO)[C@@H](O)[C@@H]2O)[C@H](O)C(=O)CC[C@H](C)C(=O)O1	> 64 µg/mL
